Target: C. elegans (N2) complex I (NADH:ubiquinone oxidoreductase) (Caenorhabditis elegans, UniProt P24887+Q93873+Q94360)
Sequence (Q94360 17-199): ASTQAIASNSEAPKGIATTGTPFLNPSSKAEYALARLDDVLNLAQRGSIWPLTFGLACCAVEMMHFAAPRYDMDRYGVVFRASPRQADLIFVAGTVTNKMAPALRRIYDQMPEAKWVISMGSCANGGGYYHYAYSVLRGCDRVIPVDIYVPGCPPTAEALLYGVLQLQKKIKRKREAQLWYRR
Sequence (P24887 whole entry): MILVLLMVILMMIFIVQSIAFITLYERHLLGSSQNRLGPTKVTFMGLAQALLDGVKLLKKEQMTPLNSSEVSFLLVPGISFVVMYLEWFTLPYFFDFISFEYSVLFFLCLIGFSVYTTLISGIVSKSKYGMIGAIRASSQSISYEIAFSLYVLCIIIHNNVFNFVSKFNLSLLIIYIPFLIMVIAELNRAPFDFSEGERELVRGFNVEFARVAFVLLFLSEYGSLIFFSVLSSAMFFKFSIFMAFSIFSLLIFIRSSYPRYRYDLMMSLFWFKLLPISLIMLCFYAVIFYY
Sequence (Q93873 31-482): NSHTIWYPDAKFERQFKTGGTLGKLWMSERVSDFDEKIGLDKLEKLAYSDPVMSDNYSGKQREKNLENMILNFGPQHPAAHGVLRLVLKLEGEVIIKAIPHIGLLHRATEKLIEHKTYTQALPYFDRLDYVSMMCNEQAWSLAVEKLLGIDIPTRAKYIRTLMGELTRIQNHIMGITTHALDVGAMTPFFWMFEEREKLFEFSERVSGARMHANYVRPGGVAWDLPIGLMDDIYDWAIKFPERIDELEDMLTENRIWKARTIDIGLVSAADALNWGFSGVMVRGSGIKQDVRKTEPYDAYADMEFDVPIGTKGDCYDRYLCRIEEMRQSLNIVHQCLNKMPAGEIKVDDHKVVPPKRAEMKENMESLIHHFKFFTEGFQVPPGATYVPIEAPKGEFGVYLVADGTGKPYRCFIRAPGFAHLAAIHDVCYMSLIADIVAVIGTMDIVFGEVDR
Test: biochemical
Format: biochemical
Settings: 100 μM of NPD compound; C. elegans mitochondria; mean of four biological replicates
QUANTITY_MEASURED: Percent in vitro activity, Complex I (Mean)

| TEST_SMILES | RESULT_VALUE |
| --- | --- |
| O=C(/C=C/c1ccccc1)/C=C/c1ccccc1 | 91.900% |
| CCCCCCCCCCCCCCCc1cccc(O)c1C(=O)O | 92.953% |
| COc1ccc(-c2cc(=Nc3ccccc3N)c3ccccc3o2)cc1 | 86.425% |

---

Test system: C. elegans complex III (decylubiquinol-cytochrome C reductase)
Assay: In vitro complex III activity assay, C. elegans mitochondria
Assay type: biochemical, Caenorhabditis elegans
Settings: 100 μM of NPD compound; C. elegans mitochondria; mean of four biological replicates
QUANTITY_MEASURED: Percent in vitro activity, Complex III (Mean) (%)

| MOLECULE | RESULT_VALUE |
| --- | --- |
| COc1ccc(-c2cc(=Nc3ccccc3N)c3ccccc3o2)cc1 [NPD6380] | 107.062 |
| CCCCCCCCCCCCCCCc1cccc(O)c1C(=O)O [Anacardic acid] | 0.000 |
| COc1cc2c(cc1OC)C(/C=C/c1ccc(N(C)C)cc1)=NCC2 [NPD6303] | 78.101 |
| Cc1cc(O)c(C(=O)/C=C/c2ccccc2)c(=O)o1 [NPD8366] | 76.737 |
| O=C(/C=C/c1ccccc1)/C=C/c1ccccc1 [FSL0005] | 103.918 |
| CCCCCC[C@H]1C(=O)O[C@H](C)[C@H](NC(=O)c2cccc(NC=O)c2O)C(=O)O[C@@H](C)[C@@H]1OC(=O)CC(C)C [Antimycin A, reference compound] | 0.000 |
| COc1cc2c(cc1OC)C(c1ccc(-c3ccc(Cl)c(Cl)c3)o1)=NCC2 [NPD3577] | 65.539 |
| COc1ccc(-c2cc(=Nc3ccc(C)cc3)c3ccccc3o2)cc1OC [NPD1450] | 111.720 |

---

Molecular target: C. elegans (N2) complex I (NADH:ubiquinone oxidoreductase) (Caenorhabditis elegans, UniProt P24887+Q93873+Q94360)
Test: biochemical
Format: biochemical
Conditions: Dose 0.313 µM; read-out: C. elegans mitochondrial complex I activity
# note: boundary value 80% maps to -1; activity at 0.313 µM below it maps to 1

| COMPOUND | DISCRETE_LABEL |
| --- | --- |
| Clc1ccc(OCCn2cnc3ccccc32)c(Cl)c1 | -1 |
| Clc1ccc(Cn2cnc3ccccc32)c(Cl)c1 | 1 |
| CCCn1c(COc2ccc(C)cc2)nc2ccccc21 | -1 |
| Cc1ccc(SCCCn2cnc3ccccc32)cc1 | 1 |
| Clc1ccc(Cn2cnc3ccccc32)cc1Cl | -1 |
| Nc1nc2ccccc2n1Cc1ccc(Cl)cc1 | 1 |
| Brc1ccccc1OCCCCn1cnc2ccccc21 | 1 |
| Cc1cccc(OCCn2c(C)nc3ccccc32)c1 | 1 |
| Cc1ccc(OCCn2cnc3ccccc32)c(C)c1 | -1 |
| Cc1ccccc1OCCCCn1cnc2ccccc21 | 1 |
| Cc1ccc(OCCn2cnc3ccccc32)cc1 | -1 |
| Cc1nc2ccccc2n1CCOc1ccccc1Cl | 1 |
| CCCOc1ccc(Cn2cnc3ccccc32)cc1 | 1 |
| CC(C)Oc1cccc(OCCn2cnc3ccccc32)c1 | 1 |
| Cc1ccc(CSCc2nc3ccccc3[nH]2)cc1 | -1 |
| Clc1ccccc1OCCCCn1cnc2ccccc21 | 1 |
| Nc1nc2ccccc2n1CCOc1ccc(Br)cc1 | 1 |
| Cc1ccc(C(C)C)c(OCC(O)Cn2cnc3ccccc32)c1 (stereo not drawn) | 1 |

---

molecules and their reported C. elegans KCN Survival
System: L1 wild-type C. elegans
Details: Dose 0.2 µM; mean of at least three biological replicates
QUANTITY_MEASURED: C. elegans KCN Survival

| MOLECULE | STUDY_SYSTEM | QUANTITY_MEASURED | RESULT_VALUE |
| --- | --- | --- | --- |
| Cc1ccc(C(C)C)c(OCC(O)Cn2cnc3ccccc32)c1 (centres unmarked) | L1 wild-type C. elegans | C. elegans KCN Survival | 1.001 |
| Cc1ccc(OCCn2cnc3ccccc32)cc1 | L1 wild-type C. elegans | C. elegans KCN Survival | 0.927 |
| CC(C)Oc1cccc(OCCn2cnc3ccccc32)c1 | L1 wild-type C. elegans | C. elegans KCN Survival | 1.017 |
| FC(F)(F)c1cccc(OCCCCn2cnc3ccccc32)c1 | L1 wild-type C. elegans | C. elegans KCN Survival | 1.053 |
| CCc1cc(OCCn2cnc3ccccc32)ccc1Cl | L1 wild-type C. elegans | C. elegans KCN Survival | 1.082 |

---

Assay: in vitro
Settings: human, HEK293 cells (Flp-In-293), HEK293 viability, Dose 100 µM
Each record is given t if its reported viability at 2 days, 100 µM is strictly below 10%. Records at or above 10% are given f.

| COMPOUND | DISCRETE_LABEL |
| --- | --- |
| Cc1cccc(OCCn2c(C)nc3ccccc32)c1 [Compound 6285199] | f |
| Clc1ccc(OCCn2cnc3ccccc32)c(Cl)c1 [Compound 7221649] | t |
| Cc1nc2ccccc2n1CCOc1ccccc1Cl [Compound 5561642] | f |
| Cc1ccc(CSCc2nc3ccccc3[nH]2)cc1 [Compound 7121781] | f |
| CC(C)Oc1cccc(OCCn2cnc3ccccc32)c1 [Compound 7926496] | f |
| Cc1ccc(C(C)C)c(OCC(O)Cn2cnc3ccccc32)c1 (centres unmarked) [Compound 6093301] | t |
| FC(F)(F)c1cccc(OCCCCn2cnc3ccccc32)c1 [Compound 7925004] | t |
| Cc1ccc(OCCn2cnc3ccccc32)c(C)c1 [Compound 7706808] | f |
| Cc1ccccc1OCCCn1c(C)nc2ccccc21 [Compound 7916923] | t |
| Clc1ccc(SCCCCn2cnc3ccccc32)cc1 [Compound 7925515] | f |
| Nc1nc2ccccc2n1CCOc1ccc(Br)cc1 [Compound 5842535] | t |
| Brc1ccccc1OCCCCn1cnc2ccccc21 [Compound 7924576] | t |
| Clc1ccc(Cn2cnc3ccccc32)cc1Cl [Compound 5571325] | f |

---

Test: in vitro
Conditions: human, HEK293 Cell Viability Assay LC50, HEK293 cells; estimated from fitted dose-response curves; mean of at least two biological replicates
Checkbox rule: CC50 at 2 days lower than 50 µM = satisfied; CC50 at 2 days not lower than 50 µM = not satisfied.

| TEST_SMILES | DISCRETE_LABEL |
| --- | --- |
| c1ccc(CCCCCCCCCCc2nc3ccccc3[nH]2)cc1 | satisfied |
| Clc1ccccc1OCCCCn1cnc2ccccc21 | satisfied |
| Nc1nc2ccccc2n1Cc1ccc(Cl)cc1 | not satisfied |
| Cc1ccc(Cn2c(C)nc3ccccc32)cc1 | not satisfied |
| Clc1ccc(SCCCCn2cnc3ccccc32)cc1 | not satisfied |
| COc1ccccc1/C=C/c1nc2ccccc2[nH]1 | satisfied |
| Cc1ccc(SCCCn2cnc3ccccc32)cc1 | not satisfied |
| CCCOc1ccc(Cn2cnc3ccccc32)cc1 | not satisfied |

---

Molecular target: B. taurus (heart) complex I (Bos taurus, UniProt P03887+P17694+P42026)
Sequence (P03887 whole entry): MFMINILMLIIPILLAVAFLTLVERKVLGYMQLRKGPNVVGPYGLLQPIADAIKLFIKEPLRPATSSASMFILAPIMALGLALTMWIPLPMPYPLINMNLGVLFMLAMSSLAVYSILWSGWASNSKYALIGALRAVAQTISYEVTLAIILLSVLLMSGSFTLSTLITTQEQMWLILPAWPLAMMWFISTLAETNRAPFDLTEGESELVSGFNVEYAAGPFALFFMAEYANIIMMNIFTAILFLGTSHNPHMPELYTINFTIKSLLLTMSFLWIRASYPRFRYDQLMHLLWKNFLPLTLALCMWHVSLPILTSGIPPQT
Sequence (P17694 34-463): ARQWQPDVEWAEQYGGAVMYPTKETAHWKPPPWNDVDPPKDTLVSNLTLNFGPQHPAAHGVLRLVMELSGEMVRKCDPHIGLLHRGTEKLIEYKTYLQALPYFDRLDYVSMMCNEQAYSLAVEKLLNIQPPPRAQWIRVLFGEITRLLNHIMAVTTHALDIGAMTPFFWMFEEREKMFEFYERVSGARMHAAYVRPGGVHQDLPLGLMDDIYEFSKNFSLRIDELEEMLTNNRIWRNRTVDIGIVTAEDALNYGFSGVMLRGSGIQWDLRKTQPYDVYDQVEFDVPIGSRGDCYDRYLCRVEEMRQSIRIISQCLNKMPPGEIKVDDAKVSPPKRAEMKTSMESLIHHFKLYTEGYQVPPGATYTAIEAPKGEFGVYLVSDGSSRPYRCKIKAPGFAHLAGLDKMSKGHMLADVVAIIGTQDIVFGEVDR
Sequence (P42026 38-216): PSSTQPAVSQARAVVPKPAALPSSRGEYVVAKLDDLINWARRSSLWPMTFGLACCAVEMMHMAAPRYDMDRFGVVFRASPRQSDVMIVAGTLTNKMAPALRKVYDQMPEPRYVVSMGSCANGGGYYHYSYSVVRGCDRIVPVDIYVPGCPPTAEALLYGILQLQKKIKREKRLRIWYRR
Experiment: biochemical
Assay type: biochemical
Settings: Dose 15 µM; read-out: B. taurus mitochondrial complex I activity
This section presents compounds with their documented activity at 15 µM values.

| COMPOUND | activity at 15 µM / % |
| --- | --- |
| Cc1ccc(OCCn2cnc3ccccc32)c(C)c1 [Compound 7706808] | 30.6 |
| CC(C)Oc1cccc(OCCn2cnc3ccccc32)c1 [Compound 7926496] | 9.56 |
| Cc1nc2ccccc2n1Cc1ccc(Cl)c(Cl)c1 [Compound 5655567] | 1.19 |
| Brc1ccccc1OCCCCn1cnc2ccccc21 [Compound 7924576] | 6.52 |
| Cc1nc2ccccc2n1CCOc1ccccc1Cl [Compound 5561642] | 29.8 |
| Clc1ccccc1OCCCCn1cnc2ccccc21 [Compound 7925804] | 9.9 |
| Cc1cccc(OCCn2c(C)nc3ccccc32)c1 [Compound 6285199] | 18.4 |
| Clc1ccc(Cn2cnc3ccccc32)c(Cl)c1 [Compound 6750659] | 8.04 |
| Cc1ccc(SCCCn2cnc3ccccc32)cc1 [Compound 7926035] | 10 |
| Clc1ccc(SCCCCn2cnc3ccccc32)cc1 [Compound 7925515] | 26.8 |
| FC(F)(F)c1cccc(OCCCCn2cnc3ccccc32)c1 [Compound 7925004] | 35.9 |
| Nc1nc2ccccc2n1CCOc1ccc(Br)cc1 [Compound 5842535] | 33.6 |
| Cc1ccccc1OCCCn1c(C)nc2ccccc21 [Compound 7916923] | 24.7 |
| Clc1ccc(OCCn2cnc3ccccc32)c(Cl)c1 [Compound 7221649] | 33 |
| Nc1nc2ccccc2n1Cc1ccc(Cl)cc1 [Compound 5652765] | 4.61 |
| Cc1nc2ccccc2n1CCOc1ccccc1 [Compound 5550112] | 36.6 |

Reference source for all entries: paper PMC11079024
